Data origin, for the record: PubChem BioAssay (NCI)

Test system: SF-268 CNS
assayProcedure: NCI tumour cell line growth inhibition, 48 h
quantityName: GI50

molecule	quantityName	result
COc1ccc2c([nH]c3cc(O)c(C)cc32)c1CC=C(C)C	GI50	9.66 µM
O=C1c2ccccc2CCC1(Br)Br	GI50	4.1 µM
c1ccc(C2=NN[C@H](c3cn(-c4ccccc4)nc3-c3ccccc3)C2)cc1	GI50	5.98 µM
O=C1C(Cl)=C(Nc2ccccn2)C(=O)c2ccccc21	GI50	2.74 µM
O=C(Nc1ccc(O)c(NS(=O)(=O)c2ccc(F)cc2)c1)c1ccc(-c2ccccc2)cc1	GI50	6.49 µM
COc1cc(/C=N/Nc2ncnc3c2cnn3Cc2ccccc2)ccc1O	GI50	5.34 µM
[O]=[W](=[O])([OH])[OH]	GI50	> 100 µM
COc1ccc2cc(C(=O)/C=C/c3ccco3)ccc2c1	GI50	20 µM
C[CH2][Sn]([Cl])([CH2]C)[CH2]C	GI50	1.59 µM
O=C(OC(CNc1c(C(=O)c2ccccc2)c(=O)n(Cc2ccccc2)c(=O)n1Cc1ccccc1)CN1CCCCC1)c1ccccc1 (stereo not drawn)	GI50	24.1 µM
CC(C)NCCCCCNc1cc(O)cc2cccnc12	GI50	> 100 µM
O=C1C(Cl)=C(Nc2cccc(O)c2)C(=O)N1c1ccc(Cl)cc1Cl	GI50	28.4 µM
CCCCC/C=C\C/C=C/CCCCCCCCNC(=O)Nc1ccc([N+](=O)[O-])cc1	GI50	38 µM

###

System: A498 renal
assayProcedure: NCI tumour cell line growth inhibition, 48 h; in the data active means GI50 below about 0.43 µM; inactive means the rest
Classes used: True (active), False (inactive)

moleculeSmiles	classAssignment
[O]=[W](=[O])([OH])[OH]	False
CN1CCN(CCCN2c3ccccc3Sc3ccc(C(F)(F)F)cc32)CC1	False
CS(=O)(=O)c1ccc(-c2[nH]c3ccc(F)cc3c2/C=N/NC(N)=S)cc1	True
O=C(Nc1ccc(O)c(NS(=O)(=O)c2ccc(F)cc2)c1)c1ccc(-c2ccccc2)cc1	False
CCNC(=O)c1ccc2c(c1)nc(-c1ccc(Cl)cc1)n2-c1cc(C(C)(C)C)[nH]n1	False
Cc1cccc2c1NC(=O)C2(c1ccc(O)cc1)c1ccc(O)cc1	False
COc1cc(/C=N/Nc2ncnc3c2cnn3Cc2ccccc2)ccc1O	False

###

System: MDA-MB-435
assayProcedure: NCI tumour cell line growth inhibition, 48 h
quantityName: TGI

molecule	experimentalSystem	quantityName	result
O=C1Cc2c(-c3ccccc3)cc(-c3ccc4ccccc4c3)nc2-c2ccccc2N1	MDA-MB-435	TGI	> 100 µM
COc1ccc2c(c1)c(-c1nc(-c3cn(C)c4ncccc34)cs1)cn2CCCCN1CCOCC1	MDA-MB-435	TGI	2.58 µM
CCCCCCCCCCCCCCCCNc1ccc2c(c1)OCCOCCOCCOCCO2	MDA-MB-435	TGI	11.1 µM
NS(=O)(=O)c1ccc(N=Nc2nc3[nH]cnc(=S)c3[nH]2)cc1	MDA-MB-435	TGI	> 100 µM
O=C1CCCCCCCCCCC1CN(Cc1ccccc1)Cc1ccccc1 (stereo unspecified)	MDA-MB-435	TGI	> 100 µM
O=C(O)c1nc2cc(C(F)(F)F)ccc2[nH]c1=O	MDA-MB-435	TGI	> 100 µM

###

Test system: XF 498 CNS
assayProcedure: NCI tumour cell line growth inhibition, 48 h

compound	operator	TGI / µM
C[CH2][Sn]([Cl])([CH2]C)[CH2]C	=	3.26
Cc1ccc(C(O)/C(=N/N)c2nc3ccc([N+](=O)[O-])cc3[nH]c2=O)cc1 (stereo unspecified)	>	100
CC(=O)OCc1c(C)c2ccccc2n1C(C)=O	=	84.6
Nc1ccn(CC(CO)CC(c2ccccc2)P(=O)(O)O)c(=O)n1 (stereo unspecified)	>	100
CN1CCc2cc(O)c3cc2C1Cc1ccc(cc1)Oc1cc(ccc1O)CC1c2c(cc4c(c2O3)OCO4)CCN1C (stereo unspecified)	=	29.2
CCCCCCCCCCNC(=S)OCCCC	=	39.8
CCOC(=O)NN(C(=O)OCC)C(C(=O)c1ccc(Cl)cc1)=C1NCCN1	>	100
CCOc1ccc(N=Nc2c(-c3ccccc3)nn(C(=O)CC(=O)Nc3cccc(C)c3)c2-c2ccccc2)cc1	>	100
COC(=O)C(C(=O)C(=O)Nc1ccc([N+](=O)[O-])cc1)c1nc2cc(C)c(C)cc2[nH]c1=O (stereo unspecified)	>	100
COc1ccc(NC(=O)CC(=O)n2nc(-c3ccccc3)c(N=Nc3ccccc3C)c2-c2ccccc2)cc1	=	33.3
O=C1C2C3CCC(C2C(=O)N1CO)C1C2C(=O)N(CO)C(=O)C2C31 (stereo unspecified)	>	100

###

Measured TGI of individual entries
Tested on: 786-0 renal
assayProcedure: NCI tumour cell line growth inhibition, 48 h
Where a SMILES comes first, the peptide text is derived from it. The star is where a group is joined. Boc = CC(C)(C)OC(=O)*; OBn = c1ccc(CO*)cc1

compound	TGI
COC(=O)C1CCC[C@H]2C(CO)=C(C)C(=O)[C@@H]12 (stereo not given in full)	> 100 µM
Nc1nc(Sc2ccc([N+](=O)[O-])cn2)c2[nH]cnc2n1	> 52.8 µM
O=c1c2ccccc2n2n1Cc1ccccc1C2	> 100 µM
Cc1cc(O)c(O)c(Oc2cc(C)cc(O)c2O)c1	55.5 µM
COC(=O)c1cc(NC(=O)CN(CCN(CC(=O)O)CC(=O)Nc2ccc(O)c(C(=O)OC)c2)CC(=O)O)ccc1O	> 100 µM
O=C(Oc1ccc(OC(Oc2ccccc2)c2ccccc2)cc1)c1ccccc1 (stereo not given)	> 31.6 µM
N#Cc1c(-c2ccccc2)c(C#N)c(=S)n(C2OCC(O)C(O)C2O)c1N (stereo not given)	> 100 µM
O=C(NCc1cccs1)OC1CC2CCC1C2 (stereo not given)	> 100 µM
Cc1nc2ccc(S(=O)(=O)Nc3ccccc3Cl)cc2c(=O)n1NC(=O)CNc1ccccc1Cl	> 100 µM
CC(C)C(NC(=O)CNC(=O)C1CCCN1C(=O)C(NC(=O)OC(C)(C)C)C(C)C)C(=O)NCC(=O)OCc1ccccc1 (stereo not given) (Boc-VPGVG-OBn; configuration not given here)	> 100 µM
CN(C)C(=O)C(F)(F)C(c1ccc(C(F)(F)F)cc1)C1C(=O)N(C)C(=O)N(C)C1=O (stereo not given)	> 100 µM
O=C1CSC(c2ccccc2[N+](=O)[O-])N1c1ccc(-n2c(-c3ccccc3)nc3ccccc3c2=O)cc1 (stereo not given)	> 100 µM
COc1cc([N+](=O)[O-])c(OC)cc1-c1nc2n(c1/C(N)=N/C(=N)N)CCS2	> 100 µM
Cc1ccc(C(O)/C(=N/N)c2nc3ccc([N+](=O)[O-])cc3[nH]c2=O)cc1 (stereo not given)	> 100 µM
CC(=O)Nc1ccc(S(=O)(=O)c2ccc(NC(C)=O)cc2)cc1	> 100 µM
O=C1Cc2c(-c3ccccc3)cc(-c3ccc4ccccc4c3)nc2-c2ccccc2N1	> 100 µM
C[N+]1(CCCC[N+]2(C)CCCCCCC2)CCCCCCC1	> 100 µM
C(=C\c1nc2ccccc2s1)/c1ccc(N2CCOCC2)s1	> 100 µM
Nc1ccn(CC(CO)CC(c2ccccc2)P(=O)(O)O)c(=O)n1 (stereo not given)	> 100 µM
Cc1ccc(Nc2cc(=O)[nH]c(=O)[nH]2)cc1CS	> 100 µM

###

Tested on: LOX IMVI melanoma
assayProcedure: NCI tumour cell line growth inhibition, 48 h
Measured TGI of individual entries
quantityName: TGI

compound	result
N#CC(C#N)=Cc1ccc(Oc2ccccc2)cc1	30.8 µM
CCC(C)C(NC(=O)c1c2ccccc2nc2ccccc12)C(=O)O (stereo not given)	> 100 µM
COc1cc2c3c(c1OCc1ccccc1)NCCC3NCC2 (stereo not given)	> 100 µM
COc1cc(/C=N/Nc2ncnc3c2cnn3Cc2ccccc2)ccc1O	> 25 µM
Cc1n(-c2ccccc2)c2c([n+]1Cc1ccc([N+](=O)[O-])cc1)C(=O)c1ccccc1C2=O	3.73 µM
CCCCCCCCCCCCCC(=O)OC1C(CO)OC(=O)C1O (stereo not given)	> 100 µM
CC(=O)OC(C#N)CC(C)(C)/[N+]([O-])=[N+](\[O-])C(C)(C)CC(C#N)OC(C)=O (stereo not given)	28.8 µM
C[C@]12CC/C(=N\OC(=O)Nc3ccccc3)C=C1CC[C@@H]1C2CC[C@@]2(C)C1CC[C@@H]2OC(=O)Nc1ccccc1 (stereo not given in full)	> 100 µM
COc1cc(/C=C2/C(=O)N=C(NC(C)=O)N2C)ccc1OC(C)=O	> 100 µM
C[N+]1(CCCC[N+]2(C)CCCCCCC2)CCCCCCC1	> 100 µM

###

System: OVCAR-8 ovarian
assayProcedure: NCI tumour cell line growth inhibition, 48 h
Measured GI50 of individual entries

compound	experimentalSystem	GI50
COC(=O)c1cc(NC(=O)CN(CCN(CC(=O)O)CC(=O)Nc2ccc(O)c(C(=O)OC)c2)CC(=O)O)ccc1O	OVCAR-8 ovarian	77.3 µM
O=C1c2ccccc2CCC1(Br)Br	OVCAR-8 ovarian	2.36 µM
CS(=O)(=O)c1ccc(-c2[nH]c3ccc(F)cc3c2/C=N/NC(N)=S)cc1	OVCAR-8 ovarian	2.76 µM
COc1cc([N+](=O)[O-])c(OC)cc1-c1nc2n(c1/C(N)=N/C(=N)N)CCS2	OVCAR-8 ovarian	17.5 µM
CN1CCN(CCCN2c3ccccc3Sc3ccc(C(F)(F)F)cc32)CC1	OVCAR-8 ovarian	1.7 µM
O=C(O)CP(=O)(c1ccccc1)c1ccccc1.O=C(O)CP(=O)(c1ccccc1)c1ccccc1.[Cd]	OVCAR-8 ovarian	32.7 µM
CNC(=O)c1c(NC(=O)c2ccc(C(C)C)cc2)sc2c1CCC(=O)C2	OVCAR-8 ovarian	0.338 µM
Nc1ncnc2c1c(C(=O)NO)cn2C1OC(CO)C(O)C1O (stereo not given)	OVCAR-8 ovarian	0.353 µM
CCCC(=O)Nc1ncnc2c1ncn2C1OC2COP(=O)(O)OC2C1OC(=O)CCC (stereo not given)	OVCAR-8 ovarian	> 1000 µM
Cc1csc(-c2ccc3c(c2)COC3(CCCN(C)C)c2ccc(F)cc2)c1 (stereo not given)	OVCAR-8 ovarian	2.35 µM
